- assay.procedure: Calcein AM cytotoxicity assay, B10A.4 cells
- stated.conditions: mouse, b10a.4 macrophages, Cytotoxicity IC50, B10A.4, first column headed B10A.4
reported.metric: CC50 at 72 h

• CC(C)=CCNc1nc(F)nc2c1ncn2C1CCCO1 (stereo not drawn) = > 167 µM
• Cc1cccc(CNc2nc(F)nc3c2ncn3C2CCCO2)c1O (stereo not drawn) = 156 µM
• Oc1ccccc1CNc1ncnc2nc[nH]c12 [ortho-topolin, reference compound] = 87.5 µM
• Oc1ccoc1CNc1nc(F)nc2c1ncn2C1CCCO1 (stereo not drawn) = > 167 µM
• Oc1cc(O)cc(CNc2nc(F)nc3c2ncn3C2CCCO2)c1 (stereo not drawn) = > 167 µM
• Cc1cc(CNc2nc(F)nc3c2ncn3C2CCCO2)ccc1O (stereo not drawn) = > 167 µM
• Oc1cccc(CNc2ncnc3[nH]cnc23)c1 [meta-topolin, reference compound] = > 167 µM
• COc1cccc(OC)c1CNc1nc(F)nc2c1ncn2C1CCCO1 (stereo not drawn) = > 167 µM
• COc1ccc(CNc2nc(F)nc3c2ncn3C2CCCO2)cc1OC (stereo not drawn) = > 167 µM
• C/C(=C/CNc1nc(F)nc2c1ncn2C1CCCCO1)CO (stereo not drawn) = > 167 µM
• CC(CO)CCNc1nc(F)nc2c1ncn2C1CCCCO1 (stereo not drawn) = > 167 µM
• COc1ccc(CNc2nc(F)nc3c2ncn3C2CCCCO2)o1 (stereo not drawn) = > 167 µM
• COc1ccc(OC)c(CNc2nc(F)nc3c2ncn3C2CCCO2)c1 (stereo not drawn) = > 167 µM
• COc1ccc(CNc2nc(F)nc3c2ncn3C2CCCO2)c(O)c1 (stereo not drawn) = 147 µM
• Oc1ccc(CNc2nc(F)nc3c2ncn3C2CCCO2)o1 (stereo not drawn) = > 167 µM
• COc1cc(O)cc(OC)c1CNc1nc(F)nc2c1ncn2C1CCCO1 (stereo not drawn) = > 167 µM
• Oc1ccccc1CNc1nc(F)nc2c1ncn2C1CCCO1 (stereo not drawn) = > 167 µM
• Cc1ccc(O)c(CNc2nc(F)nc3c2ncn3C2CCCO2)c1 (stereo not drawn) = > 167 µM
• COc1cccc(CNc2nc(F)nc3c2ncn3C2CCCO2)c1 (stereo not drawn) = > 167 µM
• COc1ccc(CNc2nc(F)nc3c2ncn3C2CCCO2)c(OC)c1 (stereo not drawn) = > 167 µM
• C/C(=C\CNc1nc(F)nc2c1ncn2C1CCCCO1)CO (stereo not drawn) = > 167 µM
• COc1cc(O)cc(CNc2nc(F)nc3c2ncn3C2CCCO2)c1 (stereo not drawn) = > 167 µM
• Cc1cc(O)cc(CNc2nc(F)nc3c2ncn3C2CCCO2)c1 (stereo not drawn) = > 167 µM
• COc1cc(CNc2nc(F)nc3c2ncn3C2CCCO2)cc(OC)c1 (stereo not drawn) = > 167 µM
• COc1cccc(CNc2nc(F)nc3c2ncn3C2CCCO2)c1O (stereo not drawn) = 124 µM
• CC(CO)CCNc1nc(F)nc2c1ncn2C1CCCO1 (stereo not drawn) = 146 µM
• Oc1ccc(CNc2nc(F)nc3c2ncn3C2CCCO2)cc1O (stereo not drawn) = > 167 µM
• COc1cc(CNc2nc(F)nc3c2ncn3C2CCCO2)cc(OC)c1O (stereo not drawn) = > 167 µM
• CC(C)=CCNc1nc(F)nc2c1ncn2C1CCCCO1 (stereo not drawn) = 146 µM
• CC(C)=CCNc1ncnc2nc[nH]c12 [isopentenyladenine, reference compound] = > 167 µM
